Hey, just so you know, these numbers are from patent US6989371B1.

Record form. Attribute: Percentage cytotoxicity. Fill in for each entry.
- Test system: HeP2 (laryngeal)
- MEASUREMENT_PROTOCOL: MTT cytotoxicity assay, 48 hours (Example 14)
- Format: cell-based
- RUN_CONDITIONS: HeP2, 10 pM
Non-standard residues stand in square brackets, D forms with d. Residues, ends and D or L forms follow the SMILES beside them. *: point of attachment. Octanoyl = CCCCCCCC(=O)*; Ac5c = NC1(C(=O)O)CCCC1; Deg = CCC(N)(CC)C(=O)O; Aib = CC(C)(N)C(=O)O; Butyryl = CCCC(=O)*
Numbers only, in %.

Illustrative cases are given below, each with its answer.
INSERT INTO results (compound, obs_value) VALUES
  ('CCC(CC)(NC(=O)[C@H](Cc1c[nH]c2ccccc12)NC(=O)[C@H](CCC(N)=O)NC(=O)[C@H](N)Cc1ccccc1)C(=O)N[C@H](C(=O)NCC(=O)N[C@@H](Cc1c[nH]cn1)C(=O)N[C@@H](CC(C)C)C(N)=O)C(C)C [SEQ ID: 9, D-Phe-Gln-Trp-Deg-Val-Gly-His-Leu-NH2] (H-[dF]QW[Deg]VGHL-NH2; N-terminus assumed)', 0.0),
  ('CCCCCCCC(=O)N[C@H](Cc1ccccc1)C(=O)N[C@@H](CCC(N)=O)C(=O)N[C@@H](Cc1c[nH]c2ccccc12)C(=O)N[C@@H](C)C(=O)N[C@H](C(=O)NC(C)(C)C(=O)N[C@@H](Cc1c[nH]cn1)C(=O)N[C@@H](CC(C)C)C(N)=O)C(C)C [SEQ ID: 12] (Octanoyl-[dF]QWAV[Aib]HL-NH2)', 10.0),
  ('CC(C)C[C@H](NC(=O)[C@H](Cc1c[nH]cn1)NC(=O)C1(NC(=O)[C@@H](NC(=O)[C@H](C)NC(=O)[C@H](Cc2c[nH]c3ccccc23)NC(=O)[C@H](CCC(N)=O)NC(=O)[C@H](N)Cc2ccccc2)C(C)C)CCCC1)C(N)=O [SEQ ID: 10, D-Phe-Gln-Trp-Ala-Val-Ac5c-His-Leu-NH2] (H-[dF]QWAV[Ac5c]HL-NH2; N-terminus assumed)', 1.7);

For the next question, use this compound.
Entry CCCC(=O)N[C@H](Cc1ccccc1)C(=O)N[C@@H](CCC(N)=O)C(=O)N[C@@H](Cc1c[nH]c2ccccc12)C(=O)N[C@@H](C)C(=O)N[C@H](C(=O)NC(C)(C)C(=O)N[C@@H](Cc1c[nH]cn1)C(=O)N[C@@H](CC(C)C)C(N)=O)C(C)C [SEQ ID: 11] (Butyryl-[dF]QWAV[Aib]HL-NH2) , tested on HeP2 (laryngeal), has a reported Percentage cytotoxicity of 15.1

----------
Record form. Attribute: Percent Cytotoxicity. Fill in for each entry.
- Test system: HBL100 (breast)
- MEASUREMENT_PROTOCOL: MTT cytotoxicity assay, 72 hours (Example 13)
- Format: cell-based, human
- RUN_CONDITIONS: HBL, 10 nM
Non-standard residues stand in square brackets, D forms with d. Residues, ends and D or L forms follow the SMILES beside them. Aib = CC(C)(N)C(=O)O
One number for each entry, in %.

Illustrative cases are given below, each with its answer.
INSERT INTO results (molecule, experimental_target, obs_value) VALUES
  ('CCCC(CCC)(NC(=O)[C@@H](NC(=O)[C@H](C)NC(=O)[C@@H](Cc1c[nH]c2ccccc12)NC(=O)[C@H](CCC(N)=O)NC(=O)[C@H](N)Cc1ccccc1)C(C)C)C(=O)N[C@@H](Cc1c[nH]cn1)C(=O)N[C@@H](CC(C)C)C(N)=O', 'HBL100 (breast)', 14.4),
  ('CC(C)C[C@H](NC(=O)[C@H](Cc1c[nH]cn1)NC(=O)CNC(=O)[C@@H](NC(=O)C(C)(C)NC(=O)[C@H](Cc1c[nH]c2ccccc12)NC(=O)[C@H](CCC(N)=O)NC(=O)[C@H](N)Cc1ccccc1)C(C)C)C(N)=O [SEQ ID: 4, D-Phe-Gln-Trp-Aib-Val-Gly-His-Leu-NH2] (H-[dF]QW[Aib]VGHL-NH2; N-terminus assumed)', 'HBL100 (breast)', 33.2),
  ('CC(C)C[C@H](NC(=O)[C@H](Cc1c[nH]cn1)NC(=O)C(C)(C)NC(=O)[C@@H](NC(=O)[C@H](C)NC(=O)[C@@H](Cc1c[nH]c2ccccc12)NC(=O)[C@H](CCC(N)=O)NC(=O)[C@H](N)Cc1ccccc1)C(C)C)C(N)=O [SEQ ID: 5, D-Phe-Gln-D-Trp-Ala-Val-Aib-His-Leu-NH2] (H-[dF]Q[dW]AV[Aib]HL-NH2; N-terminus assumed)', 'HBL100 (breast)', 16.7);

For the next question, use this molecule.
Entry CC[C@H](C)[C@H](NC(=O)[C@H](Cc1c[nH]cn1)NC(=O)C(C)(C)NC(=O)[C@@H](NC(=O)[C@H](C)NC(=O)[C@H](Cc1c[nH]c2ccccc12)NC(=O)[C@H](CCC(N)=O)NC(=O)[C@H](N)Cc1ccccc1)C(C)C)C(N)=O [SEQ ID: 7, D-Phe-Gln-Trp-Ala-Val-Aib-His-Ile-NH2] (H-[dF]QWAV[Aib]HI-NH2; N-terminus assumed) , tested on HBL100 (breast), has a reported Percent Cytotoxicity of 7.0

----------
- System: DU145 (prostate)
- MEASUREMENT_PROTOCOL: MTT cytotoxicity assay, 72 hours (Example 13)
- Type: cell-based, human
- RUN_CONDITIONS: DU145, 100 nM
Non-standard residues stand in square brackets, D forms with d. Residues, ends and D or L forms follow the SMILES beside them. Aib = CC(C)(N)C(=O)O
READOUT: Percent Cytotoxicity

INSERT INTO measurements (compound, readout, obs_value) VALUES
  ('CC[C@H](C)[C@H](NC(=O)[C@H](Cc1c[nH]cn1)NC(=O)C(C)(C)NC(=O)[C@@H](NC(=O)[C@H](C)NC(=O)[C@H](Cc1c[nH]c2ccccc12)NC(=O)[C@H](CCC(N)=O)NC(=O)[C@H](N)Cc1ccccc1)C(C)C)C(N)=O [SEQ ID: 7, D-Phe-Gln-Trp-Ala-Val-Aib-His-Ile-NH2] (H-[dF]QWAV[Aib]HI-NH2; N-terminus assumed)', 'Percent Cytotoxicity', 'NIL'),
  ('CC(C)C[C@H](NC(=O)[C@H](Cc1c[nH]cn1)NC(=O)C(C)(C)NC(=O)[C@@H](NC(=O)[C@H](C)NC(=O)[C@@H](Cc1c[nH]c2ccccc12)NC(=O)[C@H](CCC(N)=O)NC(=O)[C@H](N)Cc1ccccc1)C(C)C)C(N)=O [SEQ ID: 5, D-Phe-Gln-D-Trp-Ala-Val-Aib-His-Leu-NH2] (H-[dF]Q[dW]AV[Aib]HL-NH2; N-terminus assumed)', 'Percent Cytotoxicity', '32.3 ± 3.8%'),
  ('CC[C@H](C)[C@H](NC(=O)[C@H](Cc1c[nH]cn1)NC(=O)CNC(=O)[C@@H](NC(=O)C(C)(C)NC(=O)[C@H](Cc1c[nH]c2ccccc12)NC(=O)[C@H](CCC(N)=O)NC(=O)[C@H](N)Cc1ccccc1)C(C)C)C(N)=O [SEQ ID: 6, D-Phe-Gln-Trp-Aib-Val-Gly-His-Ile-NH2] (H-[dF]QW[Aib]VGHI-NH2; N-terminus assumed)', 'Percent Cytotoxicity', '13.7 ± 0.9%'),
  ('CCCC(CCC)(NC(=O)[C@@H](NC(=O)[C@H](C)NC(=O)[C@@H](Cc1c[nH]c2ccccc12)NC(=O)[C@H](CCC(N)=O)NC(=O)[C@H](N)Cc1ccccc1)C(C)C)C(=O)N[C@@H](Cc1c[nH]cn1)C(=O)N[C@@H](CC(C)C)C(N)=O', 'Percent Cytotoxicity', '19.1 ± 2.1%');

For the next question, use this compound.
Item: CC(C)C[C@H](NC(=O)[C@H](Cc1c[nH]cn1)NC(=O)CNC(=O)[C@@H](NC(=O)C(C)(C)NC(=O)[C@H](Cc1c[nH]c2ccccc12)NC(=O)[C@H](CCC(N)=O)NC(=O)[C@H](N)Cc1ccccc1)C(C)C)C(N)=O [SEQ ID: 4, D-Phe-Gln-Trp-Aib-Val-Gly-His-Leu-NH2] (H-[dF]QW[Aib]VGHL-NH2; N-terminus assumed) | Percent Cytotoxicity: 24.9 ± 3.2%

----------
- Test system: DU145 (prostate)
- MEASUREMENT_PROTOCOL: MTT cytotoxicity assay, 72 hours (Example 13)
- Assay type: cell-based, human
- RUN_CONDITIONS: DU145, 100 PM
Non-standard residues stand in square brackets, D forms with d. Residues, ends and D or L forms follow the SMILES beside them. Aib = CC(C)(N)C(=O)O
Record form. Attribute: Percent Cytotoxicity. Fill in for each entry.
Provide a numeric answer, followed by its unit.

INSERT INTO measurements (compound, experimental_target, obs_value) VALUES
  ('CC(C)C[C@H](NC(=O)[C@H](Cc1c[nH]cn1)NC(=O)C(C)(C)NC(=O)[C@@H](NC(=O)[C@H](C)NC(=O)[C@@H](Cc1c[nH]c2ccccc12)NC(=O)[C@H](CCC(N)=O)NC(=O)[C@H](N)Cc1ccccc1)C(C)C)C(N)=O [SEQ ID: 5, D-Phe-Gln-D-Trp-Ala-Val-Aib-His-Leu-NH2] (H-[dF]Q[dW]AV[Aib]HL-NH2; N-terminus assumed)', 'DU145 (prostate)', '29.3 ± 2.9%'),
  ('CCCC(CCC)(NC(=O)[C@@H](NC(=O)[C@H](C)NC(=O)[C@@H](Cc1c[nH]c2ccccc12)NC(=O)[C@H](CCC(N)=O)NC(=O)[C@H](N)Cc1ccccc1)C(C)C)C(=O)N[C@@H](Cc1c[nH]cn1)C(=O)N[C@@H](CC(C)C)C(N)=O', 'DU145 (prostate)', '28.1 ± 3.5%');

For the next question, use this compound.
Item: CC(C)C[C@H](NC(=O)[C@H](Cc1c[nH]cn1)NC(=O)CNC(=O)[C@@H](NC(=O)C(C)(C)NC(=O)[C@H](Cc1c[nH]c2ccccc12)NC(=O)[C@H](CCC(N)=O)NC(=O)[C@H](N)Cc1ccccc1)C(C)C)C(N)=O [SEQ ID: 4, D-Phe-Gln-Trp-Aib-Val-Gly-His-Leu-NH2] (H-[dF]QW[Aib]VGHL-NH2; N-terminus assumed) | Percent Cytotoxicity: 23.2 ± 3.7%
